From: PubChem BioAssay (NCI)

# key: entry, value: GI50
Tested on: SR leukemia
Assay explanation: NCI tumour cell line growth inhibition, 48 h
Readout: GI50

- Compound: "COc1cc([N+](=O)[O-])c2ncccc2c1[N+](=O)[O-]"
  Readout value: "3330 nM"
- Compound: "CC1COCC(C)N1C1=C(Cl)C(=O)c2ccccc2C1=O (stereo unspecified)"
  Readout value: "2280 nM"
- Compound: "CC1(C)OC2C(COS(N)(=O)=O)SC(n3cnc4cncnc43)C2O1 (stereo unspecified)"
  Readout value: "> 100000 nM"
- Compound: "Cc1cc(Cl)ccc1NS(=O)(=O)c1ccc(-c2cnc(C3CC3)o2)cc1"
  Readout value: "96.7 nM"
- Compound: "CC(=O)Oc1ccc(/C=N/NC(N)=S)nc1"
  Readout value: "1510 nM"
- Compound: "Oc1[nH]c2cc(Cl)ccc2c1/C=c1/ccc2c(c1)N=C(c1cc(F)cc(F)c1)N=2"
  Readout value: "2220 nM"
